# tested on: Epidermal growth factor receptor (Homo sapiens, UniProt P00533)
# Sequence (P00533 whole entry): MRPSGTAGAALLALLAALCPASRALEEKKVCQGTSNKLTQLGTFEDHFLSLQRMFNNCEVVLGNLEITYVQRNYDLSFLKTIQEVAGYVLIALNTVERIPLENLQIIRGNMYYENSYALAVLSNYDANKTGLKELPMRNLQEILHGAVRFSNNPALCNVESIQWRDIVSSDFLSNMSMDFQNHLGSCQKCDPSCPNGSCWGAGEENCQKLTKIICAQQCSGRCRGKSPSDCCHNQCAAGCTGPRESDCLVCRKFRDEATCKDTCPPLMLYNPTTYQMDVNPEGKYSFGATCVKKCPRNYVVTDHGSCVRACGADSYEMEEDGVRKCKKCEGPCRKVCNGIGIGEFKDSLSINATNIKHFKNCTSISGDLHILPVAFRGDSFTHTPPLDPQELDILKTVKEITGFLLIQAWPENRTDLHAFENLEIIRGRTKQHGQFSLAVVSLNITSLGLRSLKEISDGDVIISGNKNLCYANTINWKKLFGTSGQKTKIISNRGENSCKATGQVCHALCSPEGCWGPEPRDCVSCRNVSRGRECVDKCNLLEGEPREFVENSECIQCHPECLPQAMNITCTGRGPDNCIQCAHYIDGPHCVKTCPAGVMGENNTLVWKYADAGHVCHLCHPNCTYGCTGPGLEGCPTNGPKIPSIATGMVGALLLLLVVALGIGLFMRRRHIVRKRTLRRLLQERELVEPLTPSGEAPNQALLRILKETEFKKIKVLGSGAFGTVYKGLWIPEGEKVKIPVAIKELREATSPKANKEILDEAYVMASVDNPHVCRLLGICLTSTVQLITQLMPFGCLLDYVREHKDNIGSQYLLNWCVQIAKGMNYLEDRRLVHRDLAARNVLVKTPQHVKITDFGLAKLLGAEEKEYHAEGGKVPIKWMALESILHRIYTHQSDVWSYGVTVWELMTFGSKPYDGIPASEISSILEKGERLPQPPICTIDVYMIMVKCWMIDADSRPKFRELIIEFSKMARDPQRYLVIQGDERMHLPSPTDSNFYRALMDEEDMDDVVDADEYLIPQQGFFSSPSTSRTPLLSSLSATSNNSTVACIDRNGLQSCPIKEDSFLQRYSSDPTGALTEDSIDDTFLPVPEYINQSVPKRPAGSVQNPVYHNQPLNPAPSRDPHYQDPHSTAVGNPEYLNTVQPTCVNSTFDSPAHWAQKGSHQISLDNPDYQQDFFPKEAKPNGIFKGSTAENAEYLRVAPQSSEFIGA
measurement name: IC50 (µM)
Kindly answer with a numeric value in µM, unit omitted.

Could you tell me which IC50 is on file for Cc1[nH]c(/C=C2\C(=O)Nc3ccc(C(=O)NNc4ccccc4)cc32)c(C)c1CCC(=O)O ?
3.48

====

# tested on: Platelet-derived growth factor receptor beta (Homo sapiens, UniProt P09619)
# Sequence (P09619 whole entry): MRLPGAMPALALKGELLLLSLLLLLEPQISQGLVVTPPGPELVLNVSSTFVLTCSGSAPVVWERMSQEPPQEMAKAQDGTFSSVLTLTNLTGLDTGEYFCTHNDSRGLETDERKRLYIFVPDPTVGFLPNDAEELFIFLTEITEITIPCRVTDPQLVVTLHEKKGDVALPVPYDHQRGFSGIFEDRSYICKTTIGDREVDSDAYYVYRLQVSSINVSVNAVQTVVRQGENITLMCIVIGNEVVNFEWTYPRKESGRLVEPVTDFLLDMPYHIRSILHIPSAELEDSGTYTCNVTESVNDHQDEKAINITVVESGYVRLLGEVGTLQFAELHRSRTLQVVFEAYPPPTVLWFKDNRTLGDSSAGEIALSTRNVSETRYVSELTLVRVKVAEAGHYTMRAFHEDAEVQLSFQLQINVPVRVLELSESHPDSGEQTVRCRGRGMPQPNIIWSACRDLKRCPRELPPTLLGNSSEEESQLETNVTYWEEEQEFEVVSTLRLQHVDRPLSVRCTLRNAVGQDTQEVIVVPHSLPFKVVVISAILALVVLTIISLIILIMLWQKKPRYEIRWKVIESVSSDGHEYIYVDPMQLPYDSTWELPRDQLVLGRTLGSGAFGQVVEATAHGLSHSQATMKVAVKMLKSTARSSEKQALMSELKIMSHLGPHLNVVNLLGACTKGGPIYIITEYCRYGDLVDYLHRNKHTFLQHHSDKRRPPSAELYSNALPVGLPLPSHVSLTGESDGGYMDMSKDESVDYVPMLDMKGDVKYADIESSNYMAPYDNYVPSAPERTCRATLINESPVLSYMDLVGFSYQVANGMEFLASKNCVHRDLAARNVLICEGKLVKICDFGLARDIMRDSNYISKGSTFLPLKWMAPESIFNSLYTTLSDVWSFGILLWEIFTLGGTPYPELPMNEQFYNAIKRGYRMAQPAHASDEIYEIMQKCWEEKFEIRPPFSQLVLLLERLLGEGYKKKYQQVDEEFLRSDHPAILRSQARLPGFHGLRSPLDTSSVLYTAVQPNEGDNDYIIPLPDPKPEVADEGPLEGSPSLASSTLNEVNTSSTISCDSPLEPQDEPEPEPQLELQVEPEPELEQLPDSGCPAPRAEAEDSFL
measurement name: pIC50
Note on units: pIC50 is unitless, being -log10 of a concentration expressed in mol/L.

Cc1[nH]c(/C=C2\C(=O)Nc3ccc(C(=O)NNc4ccccc4)cc32)c(C)c1CCC(=O)O; 7.40

In the following, a different compound is considered.
// fetch Platelet-derived growth factor receptor beta (Homo sapiens, UniProt P09619) pIC50 for Cc1[nH]c(/C=C2\C(=O)Nc3ccccc32)c(C)c1CCC(=O)O [ORANTINIB]
7.30
